Numbers sourced from PubChem BioAssay AID1159580.

# method: chemical genetic growth profiling, strain panel (AID 1159580);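 also: tested at 20 µM; growth read once vehicle control cultures reached saturation at 30 °C; lower values mean less growth of the strain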
# condition_summary: S. cerevisiae deletion strains, growth OD, locus YDR335W, strain msn5, stronger effect = lower value
Screen size: about 5,500 compounds; about 2,000 (36%) were called active. Inconclusive results (about 18%) are left out. The list shows a part of the results.
Please assign NOT MET whenever normalized growth is at or above 1, and MET whenever it is below.

# smiles_record, label
records = [
    ("COc1cc(-c2cc(=O)c3c(O)c(OC)c(OC)c(OC)c3o2)cc(OC)c1OC", "NOT MET"),
]

stdin: API: query returns whether the compound falls strictly under 1 in normalized growth. Query: "O=C(O)CCc1nc(-c2ccccc2)c(-c2ccccc2)o1"
stdout: MET
